Target: Ubiquitin carboxyl-terminal hydrolase 8 (Homo sapiens) (UniProt P40818)
Sequence (P40818 whole entry, looked up): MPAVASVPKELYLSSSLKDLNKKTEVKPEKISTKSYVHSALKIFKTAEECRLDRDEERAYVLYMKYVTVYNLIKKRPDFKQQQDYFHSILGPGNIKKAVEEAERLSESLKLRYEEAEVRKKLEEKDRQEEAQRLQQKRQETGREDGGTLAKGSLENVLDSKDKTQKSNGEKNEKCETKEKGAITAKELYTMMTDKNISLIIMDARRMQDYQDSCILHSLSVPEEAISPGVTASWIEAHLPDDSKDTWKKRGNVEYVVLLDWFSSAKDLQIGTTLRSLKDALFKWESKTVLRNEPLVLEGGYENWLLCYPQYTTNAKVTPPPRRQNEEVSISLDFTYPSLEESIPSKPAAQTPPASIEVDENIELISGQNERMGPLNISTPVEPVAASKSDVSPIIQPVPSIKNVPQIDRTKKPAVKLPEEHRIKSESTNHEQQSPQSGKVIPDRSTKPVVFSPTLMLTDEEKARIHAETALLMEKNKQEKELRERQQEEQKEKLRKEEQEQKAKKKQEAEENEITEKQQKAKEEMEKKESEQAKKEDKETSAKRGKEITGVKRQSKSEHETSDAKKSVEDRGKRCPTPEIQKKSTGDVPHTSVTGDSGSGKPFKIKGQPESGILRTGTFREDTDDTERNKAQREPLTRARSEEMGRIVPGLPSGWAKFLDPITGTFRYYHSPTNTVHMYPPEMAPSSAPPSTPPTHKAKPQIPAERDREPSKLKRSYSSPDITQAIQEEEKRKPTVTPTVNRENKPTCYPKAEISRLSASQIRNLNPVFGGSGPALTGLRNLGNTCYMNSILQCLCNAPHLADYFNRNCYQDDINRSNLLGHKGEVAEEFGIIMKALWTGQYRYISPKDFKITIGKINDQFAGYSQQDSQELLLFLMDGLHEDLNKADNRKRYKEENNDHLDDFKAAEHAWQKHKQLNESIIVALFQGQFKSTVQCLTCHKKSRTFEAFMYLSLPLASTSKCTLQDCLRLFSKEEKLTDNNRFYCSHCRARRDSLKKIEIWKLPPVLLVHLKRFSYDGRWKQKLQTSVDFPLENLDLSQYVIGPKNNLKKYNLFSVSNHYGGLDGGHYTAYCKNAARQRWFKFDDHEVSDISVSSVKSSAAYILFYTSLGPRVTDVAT
Assay: Ubiquitin-specific protease 8 inhibitors, concentration-effect, biochemical, validation of initial actives (AID 1645862);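 further: potency reflects inhibition of USP8 cleavage of a ubiquitin rhodamine substrate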
Conditions: recombinant USP8 deubiquitinase activity assay
Activity calls are given as the source filed them. How the calls were made is not given here.
Log the outcome using a class from t for active, f for inactive

Solved entries (count: 10):
{"columns": ["COMPOUND", "DISCRETE_LABEL"],
 "data": [
  ["CCOC(=O)C1CCN(Cc2cc(=O)oc3cc(O)c(O)cc23)CC1", "t"],
  ["CNC(=O)c1cc2nc(N(C)C)n(-c3ccc(F)cc3)c2s1", "f"],
  ["COc1ccc(Cl)cc1NC(=O)Cn1c(=O)n(CCC(=O)NC2CCCC2)c(=O)c2ccccc21", "f"],
  ["Cc1cccc(NC(=O)CSc2nnc(NC(=O)c3ccc4ccccc4c3)s2)c1", "f"],
  ["COc1ccccc1N(CC(=O)N1c2ccccc2CC1C)S(=O)(=O)c1ccc(F)cc1 (stereo not given)", "f"],
  ["COc1ccc(-c2c(NC(=O)C3COc4ccccc4O3)n[nH]c2C)cc1OC (stereo not given)", "t"],
  ["Cc1cc(=O)n2c3c(c4c(cc13)c(CO)cc(=O)n4C)OC2", "t"],
  ["O=C(c1ccc2c(c1)OCO2)[C@@H]1[C@H](C(=O)OC(c2ccccc2)c2ccccc2)N2c3ccccc3C=CC2[C@@]12C(=O)Nc1ccccc12 (stereo not given in full)", "f"],
  ["COc1cc2cc3c(c(O)c2c(O)c1-c1c(OC)cc2cc4c(c(O)c2c1O)C(=O)OC1CC(C)OC41)C(=O)OC1CC(C)OC31 (stereo not given)", "t"],
  ["Cc1noc(-c2cc(=O)n(CC(=O)NCc3ccccc3F)c3ccccc23)n1", "f"]
]}

## Input In this assay, the call recorded for FC(F)(F)c1cccc(Nc2nc(-c3ccccn3)nc3ccccc23)c1 was what?
## Output f

## Input What did this assay record as the result for Cc1ccc2c(c1)c1ncn(Cc3nc(C)no3)c(=O)c1n2CC(=O)NCc1ccccc1 ?
## Output f
